Ref: paper PMC3896271

TGT: human κ-OR (Homo sapiens, UniProt P41145)
Entries and their Ki
Please state the figure in nM; there is no need to write the unit.

| COMPOUND | Ki [nM] |
| --- | --- |
| COC(=O)C1CC(OC(C)=O)C(=O)C2C1(C)CCC1C(=O)OC(c3ccoc3CO)CC12C (centres unmarked) [compound 4] | 110 |

Okay, next one:
Given the entry COC(=O)C1CC(OCOCCO)C(=O)C2C1(C)CCC1C(=O)OC(c3ccoc3)CC12C (centres unmarked) [compound 6] , what Ki was observed with human κ-OR (Homo sapiens, UniProt P41145)?
12.7

* * *

TGT: human κ-OR (Homo sapiens)
pKi: −log10 of the molar value.
Entries and their pKi

| MOLECULE | TGT | pKi |
| --- | --- | --- |
| COC(=O)C1CC(OC(C)=O)C(=O)C2C1(C)CCC1C(=O)OC(c3ccoc3CN(C)C)CC12C (stereo not drawn) [compound 2] | human κ-OR (Homo sapiens) | < 6.00 |
| COC(=O)C1CC(OC(C)=O)C(=O)C2C1(C)CCC1C(=O)OC(c3coc(CN(C)C)c3)CC12C (stereo not drawn) [compound 3] | human κ-OR (Homo sapiens) | < 6.00 |

Okay, next one:
pKi for COC(=O)C1CC(OC(C)=O)C(=O)C2C1(C)CCC1C(=O)OC(c3cc(CO)oc3CO)CC12C (stereo not drawn) [compound 5] ?
< 6.00
